# assay.explanation: amyloid nucleation score (Sup35N fusion, yeast selection) (log enrichment); library NNK2; higher = more nucleation; inactive = no reads after selection;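 note: zero at mode of non-aggregating sequences after 7 days selection at 30°C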
amyloid nucleation score vs 0.2: at or above is 1, below is 0.

substance=KAVVMLI label_class=0
substance=TPSRFWPMLFSVNLWLRGWL label_class=0
substance=SVDRNNTYLYRLKYAFWAMG label_class=1
substance=FLYTCF label_class=1

# input Dear colleague, could you confirm whether RPSFKKYFAGSSDTNGSGVC has amyloid nucleation score at or above 0.2?
# output 0

# input Check this substance for amyloid nucleation score at or above 0.2: IVRVSEPIEVHVHVNAVYSV
# output 1

# input Hi team, for GPDSLLGFMSAHNWSAKVYP , is the recorded amyloid nucleation score at or above 0.2?
# output 1

# input Threshold query (amyloid nucleation score >= 0.2) on QLESKRWWDIGWCSYLAGGW
# output 1

# input API: above_or_equal(metric=amyloid nucleation score, cutoff=0.2) for item DALGSYWMTAMTF
# output 1

# input Quick check, amyloid nucleation score >= 0.2? HKFIPAVVSCMQGNMKNYWS
# output 0

# input // inclusive: amyloid nucleation score at least 0.2? input: YGMQLFC
# output 1

# input Check if amyloid nucleation score >= 0.2 (inclusive). Item: CCGLGELNLALLRELSWRVG
# output 1

---

# assay.explanation: amyloid nucleation score (Sup35N fusion, yeast selection) (log enrichment); library NNK2; higher = more nucleation; inactive = no reads after selection
Overview of reported amyloid nucleation score across a group of sequences:

# input Find the recorded amyloid nucleation score belonging to IHMWYSDG and report it.
# output -1.25

---

# assay.explanation: amyloid nucleation score (Sup35N fusion, yeast selection) (log enrichment); library NNK1; higher = more nucleation; inactive = no reads after selection
Overview of recorded amyloid nucleation score for various substances
I only need the number, thanks.

Some substances with known amyloid nucleation score results, for comparison:
substance=SLLDWCYINRHM readout_number=0.604
substance=ESGYVLESSVQVENKFIFTT readout_number=-2.27
substance=TRNVSVTAVMED readout_number=0.938
substance=VRVMILHLSDILYYLWYGTI readout_number=5.22

# input Look up amyloid nucleation score for this substance: MWSYNLYNLVVTS
# output 1.1

# input Which value of amyloid nucleation score has been reported for DHNLWFDNAFMSLCCCMNMI in the records?
# output 3.42

---

# assay.explanation: amyloid nucleation score (Sup35N fusion, yeast selection) (log enrichment); library NNK2; higher = more nucleation; inactive = no reads after selection
We use -0.1 as the dividing line for amyloid nucleation score: on or above the line is class 1, below is class 0.

Examples with answers:
substance=KWVGWMWGYEGSLWSSNLWR label_class="class 1"
substance=GRMWEMACFLATNMLGKSDS label_class="class 1"

# input Decide: is the reported value of amyloid nucleation score for CQGVSYHYLTACRNKLCHES equal to or greater than -0.1?
# output class 1

# input Tell me whether amyloid nucleation score is at least -0.1 here: VTIGLNDFLTWDRWFYVFYG
# output class 0

# input Has PSFMLHTCLFSHGYYILCTG a recorded amyloid nucleation score greater than or equal to -0.1?
# output class 1

# input Is the recorded value of amyloid nucleation score equal to or greater than -0.1 for this substance? CYVSFCKGA
# output class 1

# input Check the entry VLRMRGCW : does amyloid nucleation score equal or exceed -0.1?
# output class 1

# input Please tell me: is the substance SFMALYLSWFSQRDYAMAGS at or over -0.1 in terms of amyloid nucleation score?
# output class 1

# input Please indicate if the recorded amyloid nucleation score for NNKFLQVSYS meets or exceeds -0.1.
# output class 0
